Cited source for all entries: PubChem BioAssay

procedure-details: COS7 lysate on small-molecule microarray, probe aHis, 635 nm (AID 1123);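 also: z-score combines 667nm fluorescence intensity with signal-to-noise per printed compound spot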
condition-context: COS7 cell lysate, fluorescence, higher = more signal

[
  {
    "molecule": "CCCCN1CC=CC23O[C@@H]4C=CCCOC(=O)C4[C@H]2C(=O)N(CCO)[C@@H]3C1=O (some centres not stated)",
    "composite z-score": -1.36
  },
  {
    "molecule": "CCCN1C(=O)[C@@]2(c3ccc([N+](=O)[O-])cc3)CC(=O)N(C3CCCCC3)[C@@H]2c2ccc(CO)cc21",
    "composite z-score": 0.361
  },
  {
    "molecule": "CCCCCN1CC=CC23O[C@@H]4/C=C\\CCCOC(=O)C4[C@H]2C(=O)N(CCCCCO)[C@@H]3C1=O (some centres not stated)",
    "composite z-score": -1.89
  },
  {
    "molecule": "C=CCNC(=O)[C@H]1[C@@H]2C(=O)O[C@@H](c3ccccc3)[C@@H](c3ccccc3)N2[C@@H](c2ccc(O)cc2)[C@]12C(=O)Nc1ccccc12",
    "composite z-score": 0.45
  },
  {
    "molecule": "O=C1C[C@@](C(=O)NCC(F)(F)F)(c2ccc([N+](=O)[O-])cc2)[C@@H](c2ccc(CO)cc2I)N1CC12CC3CC(CC(C3)C1)C2",
    "composite z-score": 1.48
  },
  {
    "molecule": "O=C1O[C@H](c2ccccc2)[C@H](c2ccccc2)N2[C@H]1[C@@H](C(=O)Nc1nc3ccccc3s1)[C@]1(C(=O)Nc3ccccc31)[C@H]2c1ccccc1OCCO",
    "composite z-score": 2.24
  },
  {
    "molecule": "CCc1cccc(NC(=O)O[C@H]2[C@H](OC(=O)Nc3ccccc3-c3ccccc3)[C@H](OC(=O)Nc3ccccc3-c3ccccc3)[C@@H](OC)O[C@@H]2CO)c1",
    "composite z-score": 2.04
  }
]

###

procedure-details: PSAC antagonists in infected red cells, primary screen, cell-based, P. falciparum Indochina, OD700, 2 h (AID 1155);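 also: lysis reports solute entry through the parasite surface anion channel PSAC; channel blockers reduce lysis of infected cells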
condition-context: P. falciparum Indochina infected erythrocytes, osmotic lysis OD700; higher = more signal, called active from +8 up or from −8 down
property-label: z-score

[
  {
    "compound": "CCOC(=O)C[C@H]1[C@H](OC(=O)c2cc3ccccc3oc2=O)[C@@H](NC(=O)Cc2ccc(OC)cc2)c2cc(OCCCO)ccc2N1C(=O)Cc1ccc(OC)cc1",
    "property-label": "z-score",
    "value-reported": -1.26
  },
  {
    "compound": "COCCCNC(=O)[C@@]1(Cc2ccccc2I)c2ccccc2C(=O)N(Cc2ccccc2OC)[C@H]1c1ccc(CO)cc1",
    "property-label": "z-score",
    "value-reported": 1.27
  },
  {
    "compound": "COC(=O)C(CC#Cc1ccc2c(c1)[C@]1(C(=O)N2)[C@H](c2ccccc2OCCO)N2[C@H](c3ccccc3)[C@H](c3ccccc3)OC(=O)[C@H]2[C@@H]1C(=O)N1CCN(c2ncccn2)CC1)C(=O)OC",
    "property-label": "z-score",
    "value-reported": 1.49
  },
  {
    "compound": "[N-]=[N+]=Nc1ccccc1C[C@]1(C(N)=O)COC(c2ccc(OCCCO)cc2)=N1",
    "property-label": "z-score",
    "value-reported": 9.16
  },
  {
    "compound": "C=CC[C@]1(C(=O)NCC(O)CO)N=C(c2ccc(OCCCO)cc2)O[C@H]1c1ccccc1CN=[N+]=[N-] (stereo not given in full)",
    "property-label": "z-score",
    "value-reported": 1.44
  },
  {
    "compound": "C[C@]1(C(=O)NCC(F)(F)F)c2ccccc2C(=O)N(Cc2cc(C(F)(F)F)cc(C(F)(F)F)c2)[C@H]1c1ccc(CO)cc1",
    "property-label": "z-score",
    "value-reported": -0.0979
  },
  {
    "compound": "Cc1ccc(S(=O)(=O)N2[C@@H](c3ccccc3)C(C(=O)O)=CC[C@H]2c2ccc(F)cc2)cc1",
    "property-label": "z-score",
    "value-reported": 0.706
  },
  {
    "compound": "C=CCNC(=O)[C@H]1[C@@H]2C(=O)O[C@@H](c3ccccc3)[C@@H](c3ccccc3)N2[C@@H](c2ccc(O)cc2)[C@]12C(=O)N(C(=O)OCCOC)c1ccc(C#Cc3ccc(OC)cc3)cc12",
    "property-label": "z-score",
    "value-reported": 1.28
  },
  {
    "compound": "C=C(C(=O)CC[C@@H](OC(=O)c1ccccc1-c1ccccc1C(=O)O)c1ccc(OCCO)cc1)C(C)C",
    "property-label": "z-score",
    "value-reported": 1.37
  },
  {
    "compound": "CC(C)N1C(=O)[C@@]2(Cc3ccccc31)c1ccccc1C(=O)N(Cc1ccccc1)[C@H]2c1ccc(CO)cc1",
    "property-label": "z-score",
    "value-reported": 0.945
  },
  {
    "compound": "COC(=O)[C@@]1(Cc2ccc(F)cc2)[C@H]2c3cc(C(=O)N4CCCC4)n(Cc4ccc(C(F)(F)F)nc4)c3C[C@H]2CN1C(=O)c1ccccc1",
    "property-label": "z-score",
    "value-reported": 0.229
  },
  {
    "compound": "C[C@]12C(=O)N(CCO)[C@@H]3C(=O)N(c4ccc(Cl)cc4)CC=CC31O[C@@H]1/C=C\\CCCOC(=O)C12 (stereo not given in full)",
    "property-label": "z-score",
    "value-reported": 0.176
  },
  {
    "compound": "O=C1NC(=O)C2C1C=CC(C(O)C1CCCCC1)N2Nc1ccccn1 (stereo not given)",
    "property-label": "z-score",
    "value-reported": 0.567
  },
  {
    "compound": "O=C1OCCC/C=C\\[C@H]2OC34C=CCN(Cc5ccccc5)C(=O)[C@H]3N(CCO)C(=O)[C@@H]4C12 (stereo not given in full)",
    "property-label": "z-score",
    "value-reported": 0.803
  },
  {
    "compound": "Cc1ccc(S[C@]2(C(=O)NCc3ccccc3)CC(=O)N(Cc3ccccc3Cl)[C@@H]2c2ccc(CO)cc2)cc1",
    "property-label": "z-score",
    "value-reported": 0.328
  },
  {
    "compound": "CC(C)C[C@@H]1NC(=O)[C@@H]2C[C@H](C(=O)NCCCCCNC(=O)CS)[C@H](c3ccc(O)cc3)N2C1=O",
    "property-label": "z-score",
    "value-reported": -0.37
  },
  {
    "compound": "O=C1NC(=O)C2C1C=CC(C(O)c1ccc(F)cc1)N2Nc1ccc(Cl)cc1Cl (stereo not given)",
    "property-label": "z-score",
    "value-reported": 0.615
  },
  {
    "compound": "[N-]=[N+]=NCc1ccccc1[C@H]1OC(c2ccc(OCCCO)cc2)=N[C@@]1(CCS(=O)(=O)c1ccccc1)C(=O)NCCN1CCOCC1",
    "property-label": "z-score",
    "value-reported": 13.2
  },
  {
    "compound": "CC(C)C[C@@H]1NC(=O)[C@H]2C[C@@H](C(=O)O)[C@@H](c3cccc(OCCO)c3)N2C1=O",
    "property-label": "z-score",
    "value-reported": 1.34
  },
  {
    "compound": "CN1C(=O)C2C=CC(C(O)c3ccc(I)cc3)N(N(c3ccccc3)c3ccccc3)C2C1=O (stereo not given)",
    "property-label": "z-score",
    "value-reported": 1.62
  },
  {
    "compound": "CN(C)C(=O)[C@]1(CCS(=O)(=O)c2ccccc2)N=C(c2ccc(OCCCO)cc2)O[C@@H]1c1ccccc1CN=[N+]=[N-]",
    "property-label": "z-score",
    "value-reported": 14.6
  },
  {
    "compound": "CCCC[C@@H](O)C1=C(C)Cn2c(=O)n(-c3ccccc3)c(=O)n2[C@H]1CO",
    "property-label": "z-score",
    "value-reported": -0.957
  },
  {
    "compound": "CC(C)N1CC=CC23O[C@@H]4/C=C\\CCCOC(=O)C4[C@H]2C(=O)N(C(C)CO)[C@@H]3C1=O (stereo not given in full)",
    "property-label": "z-score",
    "value-reported": 0.0831
  },
  {
    "compound": "O=C(NCC(F)(F)F)[C@@H]1c2ccccc2C(=O)N(Cc2cc(C(F)(F)F)cc(C(F)(F)F)c2)[C@H]1c1ccc(CO)cc1",
    "property-label": "z-score",
    "value-reported": 0.0323
  },
  {
    "compound": "C=C(COC)C(=O)CC[C@H](OC(C)=O)c1ccccc1OCCO",
    "property-label": "z-score",
    "value-reported": -0.291
  },
  {
    "compound": "C=CC[C@]1(C(=O)NCCN2CCOCC2)N=C(c2ccc(OCCCO)cc2)O[C@H]1c1ccccc1",
    "property-label": "z-score",
    "value-reported": 0.644
  },
  {
    "compound": "N#Cc1ccc(NN2C(C(O)c3ccc(B(O)O)cc3)C=CC3CN(c4ccccc4)C(=O)C32)cc1 (stereo not given)",
    "property-label": "z-score",
    "value-reported": 10.6
  },
  {
    "compound": "CN(C)CCCCCCNC(=O)[C@@H]1C[C@@H]2C(=O)N[C@@H](CCCC[N+](C)(C)C)C(=O)N2[C@@H]1c1cccc(OCCO)c1",
    "property-label": "z-score",
    "value-reported": -0.16
  },
  {
    "compound": "CC[C@@H](O[Si](C#C[Si](C(C)C)(C(C)C)C(C)C)(C(C)C)C(C)C)c1cn([C@H](CO)Cc2ccccc2)nn1",
    "property-label": "z-score",
    "value-reported": 0.49
  },
  {
    "compound": "C=CCN1C(=O)[C@@]2(O[C@@H](CCO)[C@H]([Si](C)(C)c3ccc(OC)cc3)[C@H]2C)c2cc(N3CCCCC3=O)ccc21",
    "property-label": "z-score",
    "value-reported": 7.85
  }
]
